Just for reference, ChEMBL document CHEMBL2311268 is where these values come from.

Target: Androgen receptor (Homo sapiens)
Sequence (P10275 whole entry): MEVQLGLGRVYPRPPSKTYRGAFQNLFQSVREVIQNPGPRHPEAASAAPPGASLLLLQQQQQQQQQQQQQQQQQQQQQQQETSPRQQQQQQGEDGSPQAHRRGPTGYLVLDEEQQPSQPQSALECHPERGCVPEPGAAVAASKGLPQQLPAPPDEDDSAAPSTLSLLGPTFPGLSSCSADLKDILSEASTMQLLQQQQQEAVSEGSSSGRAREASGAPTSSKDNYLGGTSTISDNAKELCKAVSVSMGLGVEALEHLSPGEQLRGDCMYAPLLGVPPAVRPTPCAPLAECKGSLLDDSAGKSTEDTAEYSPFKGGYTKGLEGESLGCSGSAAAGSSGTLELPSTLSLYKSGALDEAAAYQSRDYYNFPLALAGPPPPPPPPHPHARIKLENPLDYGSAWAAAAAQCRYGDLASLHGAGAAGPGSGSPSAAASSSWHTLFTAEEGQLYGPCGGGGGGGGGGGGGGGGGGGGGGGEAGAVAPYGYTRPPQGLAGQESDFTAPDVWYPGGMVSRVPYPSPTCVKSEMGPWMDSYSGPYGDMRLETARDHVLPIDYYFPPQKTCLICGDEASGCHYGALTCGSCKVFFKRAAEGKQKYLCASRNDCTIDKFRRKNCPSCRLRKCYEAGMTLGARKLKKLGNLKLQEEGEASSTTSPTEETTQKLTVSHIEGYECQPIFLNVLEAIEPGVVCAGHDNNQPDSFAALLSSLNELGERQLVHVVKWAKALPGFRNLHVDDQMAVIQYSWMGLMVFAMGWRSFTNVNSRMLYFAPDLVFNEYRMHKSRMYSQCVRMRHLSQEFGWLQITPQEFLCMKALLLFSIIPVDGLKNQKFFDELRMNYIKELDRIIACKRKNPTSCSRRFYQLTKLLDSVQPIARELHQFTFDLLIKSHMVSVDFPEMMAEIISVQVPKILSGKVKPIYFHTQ
Assay: Inhibition of BF3 site of androgen receptor in human LNCAP cells expressing ARR2PB after 3 days by eGFP transcriptional assay
Assay type: cell-based
pIC50: −log10 of the molar value.
Respond with Y for pIC50 values of 5 and above, N for values below.

smiles: Clc1ccc(OCCSc2nc3ccccc3[nH]2)cc1
class assignment: Y

smiles: NS(=O)(=O)c1cccc2cc(SCCOc3ccccc3)[nH]c12
class assignment: Y

smiles: Cc1ccc(OCCSc2nc3ccccc3n2CC(=O)O)cc1C
class assignment: N

smiles: c1ccc(OCCSc2cc3ccccc3[nH]2)cc1
class assignment: Y

smiles: c1ccc(OCCCSc2nc3ccccc3[nH]2)cc1
class assignment: N

smiles: OCCn1c(SCCOc2ccccc2)nc2ccccc21
class assignment: N

smiles: c1ccc(OCCCc2nc3ccccc3[nH]2)cc1
class assignment: N

smiles: O=S(=O)(CCOc1ccccc1)c1nc2ccccc2[nH]1
class assignment: N

smiles: Cc1ccc(OCCSc2nc3ccccc3n2CC(=O)O)cc1
class assignment: N

smiles: CCc1cccc(OCCSc2nc3ccccc3n2CC(=O)OC)c1
class assignment: N

smiles: Cc1cccc(OCCSc2nc3ccccc3n2CC(=O)N2CCOCC2)c1
class assignment: N

smiles: CCn1c(SCCOc2cccc(C)c2)nc2ccccc21
class assignment: N
